# System: Botrytis cinerea
# experiment.notes: Eggplant grey mold
# Type: in vivo
# Set-up: key: 0: No disease control; 1: Low level of control; 2: Moderate control; 3: High level of control
# experimental.context: eggplant sprayed with 500 ppm, inoculated 24 h later, rated after 3-4 days
# Procedure: Eggplant seed are planted in 2.25" square pots, six per pot, and maintained in growth chambers set at 23° C., 80% humidity, and 12 h photoperiod. When the plants are at the cotyledon stage (14-18 days afterplanting), the plants are sprayed with 1.5 mL/pot of 500, 100 or 20 ppm 2:3 acetone:water (with 0.5% Tween® 20) formulations of the test compounds. Twenty-four hours later the plants are inoculated with Botrytis cinerea, approximately 0.5 mL/pot of a 4×10^6 spore/mL suspension. […]
readout.kind: Disease Control Rating at 500 ppm

Recorded results for 5 compounds are shown here.
C=CCn1cc(C(=O)Nc2ccccc2C2CCCCC2)c(C(F)F)n1 [Example 14] | 0
Cn1cc(C(=O)Nc2ccccc2[C@@H]2C[C@H]3CC[C@@H]2C3)c(C(F)(F)F)n1 (relative stereo) [Example 27] | 2
Cn1cc(C(=O)Nc2ccccc2C2CCCCCC2)c(Cl)n1 [Example 51] | 0
Cc1nn(C)cc1C(=O)Nc1ccccc1C1CCCC1 [Example 6] | 1
CC(C)C1CCCC=C1c1ccccc1NC(=O)c1cn(C)nc1C(F)(F)F (centres unmarked) [Example 131] | 0

Retrieve Disease Control Rating at 500 ppm measured for Cn1cc(C(=O)Nc2ccccc2C2=CCOCC2)c(C(F)(F)F)n1 [Example 108] and print it. 0

Retrieve Disease Control Rating at 500 ppm measured for C[C@@H]1CCC[C@@H](C)C1Oc1ccccc1NC(=O)c1cn(C)nc1C(F)(F)F (relative stereo) [Example 75] and print it. 0

Retrieve Disease Control Rating at 500 ppm measured for Cc1ccc(NC(=O)c2cn(C)nc2C(F)(F)F)c(C2CCCCC2)c1 [Example 29] and print it. 0

###

# Tested on: Botrytis cinerea
# experiment.notes: Vine grey mold (grape berries)
# Format: in vivo
# experimental.context: grape berries treated with 50 ppm, average of six berries, 7-10 days, read-out: % DISEASE CONTROL 50 ppm
# Protocol: Grape berries, which have been washed and surfaced sterilized in 70% ethanol for one minute, are, except for the negative controls, treated with 0.2 mL of a 2:3 acetone/water formulation (containing 0.05% Tween® 20) of 200 or 50 ppm of the test compounds and placed one per well in 12-well plates. Six berries per treatment level are used. […] Treatment means are calculated and percent disease control is determined by the formula [(control mean - treatment mean)/control means]×100. […]
readout.kind: pest or weed control at 50 ppm (%)
Just the number please, in %, no unit attached.

Cn1cc(C(=O)Nc2ccccc2C2CCCCC2)c(C(F)F)n1 | 92
Cc1nn(C)c(F)c1C(=O)Nc1ccccc1C1CCCCCC1 | 28
Cn1cc(C(=O)Nc2ccccc2C2CC(C)(C)CC(C)(C)C2)c(C(F)F)n1 | 16
Cn1cc(C(=O)Nc2ccccc2OCCC2CCCC2)c(C(F)(F)F)n1 | 11
Cn1cc(C(=O)Nc2ccccc2CC2CCCCC2)c(C(F)F)n1 | 7

System Botrytis cinerea. Read-out pest or weed control at 50 ppm. Item Cn1cc(C(=O)Nc2ccccc2C=C2CCCC2)c(C(F)(F)F)n1 . Report value. 12

System Botrytis cinerea. Read-out pest or weed control at 50 ppm. Item Cn1cc(C(=O)Nc2ccccc2C2CCCCCC2)c(C(F)(F)F)n1 . Report value. 87

System Botrytis cinerea. Read-out pest or weed control at 50 ppm. Item Cn1cc(C(=O)Nc2ccccc2C2(C)CCCC2)c(C(F)F)n1 . Report value. 56

System Botrytis cinerea. Read-out pest or weed control at 50 ppm. Item Cn1cc(C(=O)Nc2ccccc2CC2=CCCC2)c(C(F)F)n1 . Report value. 80

Cited source: patent US5223526A
